Data provenance: the supplement of paper PMC8371130

System: HL-1
protocol-description: relative cell viability (CellTiter-Glo) vs DMSO control (% of DMSO control); higher = more viable cells
experimental-context: oxygen condition: hypoxia 48 h (1% O2) + reoxygenation 24 h; 200 nM
Where a name gives a salt, the structure may show the parent alone.
recorded-endpoint: relative cell viability

{"molecule": "CC(C)(C)CC(C)(C)c1ccc(OCCOCC[N+](C)(C)Cc2ccccc2)cc1 [Benzethonium chloride]", "recorded-endpoint": "relative cell viability", "data-value": 94.7}
{"molecule": "C=CCc1cc(OC)c(O)c(C(=O)NCCO)c1 [Alibendol]", "recorded-endpoint": "relative cell viability", "data-value": 102}
{"molecule": "O=C1c2cccc3c2[C@H](CCC3)CN1[C@@H]1CN2CCC1CC2 [Palonosetron HCl]", "recorded-endpoint": "relative cell viability", "data-value": 109}
{"molecule": "COC(c1ccccc1)(c1ccccc1)[C@H](Oc1nc(C)cc(C)n1)C(=O)O [Ambrisentan]", "recorded-endpoint": "relative cell viability", "data-value": 97.3}
{"molecule": "COc1cc(C(C)=O)ccc1OCCCN1CCC(c2noc3cc(F)ccc23)CC1 [Iloperidone]", "recorded-endpoint": "relative cell viability", "data-value": 104}
{"molecule": "NS(=O)(=O)Cc1noc2ccccc12 [Zonisamide]", "recorded-endpoint": "relative cell viability", "data-value": 108}
{"molecule": "CC1=NN(c2ccccc2)C(=O)C1 [Edaravone]", "recorded-endpoint": "relative cell viability", "data-value": 97.7}
{"molecule": "COc1ccc(CN(CCN(C)C)c2ccccn2)cc1 [Pyrilamine Maleate]", "recorded-endpoint": "relative cell viability", "data-value": 99.1}
{"molecule": "O=P(O)(O)C(O)(Cc1cccnc1)P(=O)(O)O [Risedronic acid]", "recorded-endpoint": "relative cell viability", "data-value": 101}
